# Target: His-tagged canine IL-31 (interleukin 31) recombinant protein (canine)
# Method: BLI (Gator), biotinylated antibody on streptavidin probe, canine IL-31 as analyte
// reported Kd per item
Report the value in nM with no unit label.

Task: Entry 6465-mHvKv-canIgGB (antibody, V domains shown) VH: EVQLQQSGAELVRPGASVRLSCKASGYSFTNYYLYWVKQRPGQGLEWIGELNPRNGGTNLNAKFKTKATLTVDKSSNTAYMRLSSLTSEDSAVYYCTRGGTTVVVRDVMDFWGQGTSVTVSS VL: DIELTQSPASLAVSLGQRATISCRASESVDSYGNSFMHWYQQKPGQPPKLLIYRASNLESGIPARFSGSGSRTDFTLTINPVEADDVATYYCQQSNEDPYTFGGGTKLEIKR needs its Kd filled in; supply it.
Result: 2.09

All figures here come from patent EP4745156A1.
